- Test system: LOX IMVI
- methodSummary: NCI tumour cell line growth inhibition, 48 h
The source made the active and inactive calls. Rule as the data show it: active = GI50 up to about 1.1 µM and inactive = higher.
Hi there, use one of these labels in your reply, thanks! active, inactive

These solved cases illustrate the format of a correct answer.
Hi team, can someone confirm the assay call for Cc1c(/N=N/c2ccccc2)c(-c2ccccc2)n(C2OC(CO)C(O)C(O)C2O)c(=S)c1C#N (stereo not given) ? inactive

# lookup: test call for O=C1Nc2cccc(Cl)c2/C1=C\c1c(-c2ccccc2)nc2n1CCS2 inactive

What did this assay record as the result for CC1=NN(C(=O)CC(=O)Nc2cccc(Cl)c2)C(=O)C1/N=N\c1ccc(S(=O)(=O)c2ccc(/N=N/C3C(=O)N(C(=O)CC(=O)Nc4cccc(Cl)c4)N=C3C)cc2)cc1 (stereo not given) ? inactive

New cases:
Recorded call for O=C(O)CC1C(=O)OC2C3COC(=O)c4cc(O)c(O)c(O)c4-c4c(cc(O)c(O)c4O)C(=O)OC2C(OC(=O)c2cc(O)c(O)c4c2C1C(O)C(=O)O4)C(OC(=O)c1cc(O)c(O)c(O)c1)O3 (stereo not given) ? inactive

Name the outcome recorded for N#Cc1c(-c2ccc([N+](=O)[O-])cc2)c(C#N)c(=O)n(NS(=O)(=O)c2ccccc2)c1S in the assay. inactive

Would you mind telling me which call this test gave CN(C)CCNc1ncnc2nc(-c3ccccc3)c(-c3ccccc3)nc12 ? inactive

Hi, sorry to bother you, what did the test record for Cc1c(CNc2ccc(Cl)c(Cl)c2Cl)cnc2nc(N)nc(N)c12 ? active

Recorded test outcome, item COc1ccccc1/[N+]([O-])=C/c1ccccc1OC(=S)S inactive

Per the records of this test, what outcome belongs to Clc1ccc(C[P+]2(c3ccccc3)CCCCC2)cc1.[O-][Cl+3]([O-])([O-])[O-] ? inactive

Which outcome did this test record for the compound CN(CC(=O)O)c1ncc2c(n1)-c1ccccc1OC2 ? inactive

Outcome logged for COc1ccccc1-c1cc(=O)c2cc(C)c(C)c(C(=O)O)c2o1 in this assay: inactive

For CC(C)(C)c1cc2c(O)c(c1)C(c1ccccc1)c1cc(C(C)(C)C)cc(c1O)Cc1cc(C(C)(C)C)cc(c1O)C(c1ccccc1)c1cc(C(C)(C)C)cc(c1O)C2 (stereo not given) , which call appears in the assay record? inactive

# fetch the recorded call for CC(CCC(=O)O)[C@H]1CCC2[C@H]3C(CC(=O)[C@@]21C)[C@@]1(C)CCC(O)C[C@H]1C[C@@H]3O (stereo not given in full) here inactive

State the result this test recorded for CCCCCCOC(=O)/C=C/[C@]1(CO)C/C(=C/CC(C(C)C)C(C)C)C(=O)O1 . inactive

// return assay outcome for Cc1cc(=O)oc2cc(OCc3nc4ccccc4c(=O)[nH]3)ccc12 inactive

Please state the recorded outcome for this compound: O=C1N(c2ccccc2)C2(O)C(=O)c3ccccc3C2(O)N1c1ccccc1 (stereo not given) inactive

Write down the call the test reported for this compound. Item: C/C(=N\NC(=S)NC(CCC(=O)O)C(=O)O)c1ccccn1 (stereo not given) inactive

Tell me the recorded outcome of this test for CCN(CC)C(=O)c1c(N2CCOCC2)cc(N(CC)CC)oc1=O . inactive

# lookup: test call for COc1ccc2c(c1)CN([C@@H](C)[C@H]1CC[C@H]3[C@@H]4CC[C@H]5C[C@@H](O)CC[C@]5(C)[C@H]4CC[C@]13C)CO2 inactive

Record lookup: outcome of this test for N#CC(C#N)=C(C(C#N)C#N)C(C#N)C#N ? inactive

Please share the test call associated with ClC(Cl)=C1C(=C(Cl)Cl)C(Cl)(Cl)C1(Cl)Cl . active

How was CC1=NC(C)(COC(=O)C2(C)NC(C)(CO)CO2)COC1=O (stereo not given) classified in this test? inactive

Hi, do you know how CCOC(=O)c1cnc2oc3ccc(O)cc3c2c1-c1ccccc1 came out in this test? inactive

Each compound tested received a call. Report the one for COc1cc2c(cc1O)Cc1c-2[n+](C)cc2cc(OC)c(OC)cc12 . inactive

For O=C1N(c2ccc(Cl)cc2)C(=O)C2(SC=NN2Cc2ccccc2)N1c1ccc(Cl)cc1 (stereo not given) , what call appears in the results of this test? inactive

So what was the verdict on Cc1ccc(NC(=S)N/N=C2\C(=O)Nc3ccccc32)cc1 in this test? inactive

----------
- Tested on: UACC-62
- methodSummary: NCI tumour cell line growth inhibition, 48 h
Active and inactive are the calls of the source. No stated cut-off is given here; in the data, active = GI50 up to about 1.1 µM and inactive = higher.
Quick reference: GI50 of the listed items.

What value of GI50 has been recorded for this entry: CS(=O)(=O)Nc1ccc2c(c1)N(S(C)(=O)=O)CC2COS(C)(=O)=O (centres undefined) > 100 µM (inactive)

Please report the recorded GI50 for Cn1c(=O)c2c(n(C)c1=O)n1c(=O)c3ccccc3nc1n2C . 46.9 µM (inactive)

New cases:
Recorded GI50 for CC(=O)NC1=C(C)C(=O)c2c(nc3n2CCC3O)C1=O (centres undefined) , please? 20.1 µM (inactive)

May I ask what GI50 has been recorded for O=C1c2ccccc2S[C@@H](O)[C@@H]2CCCN12 ? 47.9 µM (inactive)

----------
Each record here notes measured GI50.
- Test system: SF-539
- methodSummary: NCI tumour cell line growth inhibition, 48 h
Calls of active or inactive are those of the source. Rule as the data show it: active = GI50 up to about 1.1 µM and inactive = higher.

Completed entries (count: 5):
Sample Cc1cn(C(CO)OC(CO)CN(O)C2C3CC4CC(C3)CC2C4)c(=O)[nH]c1=O (centres undefined) — what was its GI50? > 100 µM (inactive)

Would you mind telling me what GI50 value was observed for COc1cc2c(cc1OCCCN1CCN(C)CC1)N=C[C@@H]1CCCN1C2=O ? 2.19 µM (inactive)

Find the recorded GI50 belonging to COc1ccc(NC=O)c(C(O)CCNC(C)=O)c1 (centres undefined) and report it. > 100 µM (inactive)

Fill in: GI50 of COC(=O)CCC12CCC(=O)C1[C@@H](C(=O)OC)C[C@H]2C(=O)OC (some centres undefined) is ___ > 100 µM (inactive)

Could you share which GI50 value was measured for COc1cc([C@@H]2c3cc4c(cc3[C@@H](OC3OC5COC(C)OC5C(OC(=O)CN5CCN(C)CC5)C3OC(=O)CN3CCN(C)CC3)C3COC(=O)[C@@H]32)OCO4)cc(OC)c1OC(=O)CN1CCN(C)CC1 (some centres undefined) ? 23.1 µM (inactive)

---
Could you share which GI50 value was measured for O=C1Cc2c(-c3ccccc3)cc(-c3ccccc3)nc2-c2ccccc2N1 ? 11 µM (inactive)

Field request: GI50 | item: Fc1ccc(C(OCCN2CCC3CCC(C2)N3C/C=C/c2ccco2)c2ccc(F)cc2)cc1 (centres undefined) 14.1 µM (inactive)

Which GI50 is listed for COc1ccc2c(c1)CN([C@@H](C)[C@H]1CC[C@H]3[C@@H]4CC[C@H]5C[C@@H](O)CC[C@]5(C)[C@H]4CC[C@]13C)CO2 ? 1.59 µM (inactive)

What measured GI50 goes with O=[N+]([O-])c1ccc2c(c1)c(S(=O)(=O)O)cc1nonc12 ? > 100 µM (inactive)

Reported GI50 for CCOC(=O)c1cnc2oc3ccc(O)cc3c2c1-c1ccccc1 : what is it? 17.3 µM (inactive)

----------
- Test system: NCI-H522
- methodSummary: NCI tumour cell line growth inhibition, 48 h
The source made the active and inactive calls. Cut-off read from the data, not from the text of the source: active = GI50 up to about 1.1 µM and inactive = higher.
readoutName: GI50

// worked examples, GI50 included
Which GI50 reading was recorded for the molecule NCCNS(=O)(=O)c1ccc(N)cc1 ? > 100 µM (inactive)

Please give the measured GI50 for this molecule: CC(=O)Oc1c(C)cc2c(c1C)C(C)(C)CN2C(=O)C(C)(C)C > 100 µM (inactive)

Fill blank: measured GI50 of the molecule COc1cc(S(=O)(=O)Nc2ccc(-c3csc(N4C(=O)CSC4c4ccccc4O)n3)cc2)ccc1Cl (configuration not stated) is ____. 24.3 µM (inactive)

What value of measured GI50 is listed for Cc1cc(=O)oc2cc(OCc3nc4ccccc4c(=O)[nH]3)ccc12 ? > 100 µM (inactive)

Sample Cc1nc2cc(Nc3ccccc3C(=O)O)ccc2s1 — what was its GI50? 75 µM (inactive)

Next:
Which GI50 value is on record for Oc1ccc(O)c(-n2cccn2)c1-n1cccn1 ? 25.7 µM (inactive)

Give its GI50 value. Item: CCN(CC)CCSc1c2ccccc2nc2c(OC)ccc(OC)c12 3.26 µM (inactive)

Given the entry O=c1[nH]nc(N/N=C\c2ccc(Cl)cc2)c2ccccc12 , report its measured GI50. 16.6 µM (inactive)

# get_value(readout='GI50', item= O=C(Nc1ccccc1)c1cc2c(cc1Cl)Sc1nccn1S2(=O)=O ) 21 µM (inactive)

Which value of GI50 has been reported for Cc1ccc2c(=O)cc(Cc3csc4ccccc34)[nH]c2n1 in the records? 13.6 µM (inactive)

What value of GI50 has been recorded for this entry: CCNC1CC(n2cc(C)c(=O)[nH]c2=O)OC1CO (configuration not stated) > 100 µM (inactive)

Which measured GI50 value corresponds to CCc1ccc(Cc2ccc(CC)c(NC(=O)C(=O)C3NC(=S)NC3=O)c2CC)c(CC)c1NC(=O)C(=O)C1NC(=S)NC1=O (configuration not stated) ? > 100 µM (inactive)

Requested field: GI50. Item: O=C1CCCCN1 > 1120 µM (inactive)
